Data origin: PubChem BioAssay (NCI)

# Test system: A498 renal
# method.summary: NCI-60 one-dose screen, 48 h
# condition.context: 10 µM unless noted
# Method: Growth inhibition of the A498 human tumor cell line is measured as a screen for anti-cancer activity. Cells are grown in 96 well plates and exposed to the test compound for 48 hours. Compounds are tested at a single concentration, which is 10^-5 M for most compounds. The reported endpoint is percent growth (GI% or GIPRCNT), where numbers from 0 - 100% represent growth inhibition, and numbers from -100% - 0 represent cell death. For example, a value of 40 represents 60% growth inhibition. […]
About 83,000 compounds went through this panel and 20% of them were active in at least one assay; those are over-represented in the sample as a whole. Activity calls are given as the source filed them. Rule for the calls: active = growth percent below 10; inactive = the rest.
Outcome codes: True for active, False for inactive

{"compound": "CC(=O)Nc1ccc(OC(=O)c2ccccc2O)cc1", "assigned.category": "False"}
{"compound": "Cc1cccc[n+]1CCC[n+]1ccccc1C", "assigned.category": "False"}
{"compound": "O=C(NCCNc1nccc(-c2c(-c3cccc(O)c3)nc3sccn23)n1)c1ccccc1O", "assigned.category": "False"}
{"compound": "OCc1cn(-c2ccc(Cl)cc2)nc1-c1ccc(O)cc1", "assigned.category": "False"}
{"compound": "O=C(Nc1ccccc1F)Nc1ccccc1Cl", "assigned.category": "False"}
{"compound": "O=c1c2ccccc2sc2c(NCCN3CCOCC3)nc3ccccc3c12", "assigned.category": "False"}
{"compound": "c1ccc2nc(Cn3cc[n+](Cc4ccc5ccccc5n4)c3)ccc2c1", "assigned.category": "False"}
{"compound": "CC(=O)O[C@@H]1[C@@H](OC(C)=O)[C@H](OC(C)=O)CO[C@H]1Nc1cccc2ccccc12", "assigned.category": "False"}
{"compound": "COc1cccc(/C=N/C(=S)NC2(C)C3CCC(C3)C2(C)C)c1O (configuration not stated)", "assigned.category": "False"}
{"compound": "COc1cc2ncnc(Oc3ccc(NC(=O)Nc4ccc(C5(C#N)CCCC5)cc4)c4ccccc34)c2cc1OC", "assigned.category": "False"}
{"compound": "C#CCn1c(-c2cc(OC)c(OC)cc2Br)nc(-c2ccccc2)c1-c1ccccc1", "assigned.category": "False"}
{"compound": "COC(=O)/C=C/C(=O)c1cc(C)cc(C)c1O", "assigned.category": "False"}
{"compound": "CC(C)(C)NCC(O)COc1c(Br)c(Br)c(Br)c2c1OC(C)(C)C2 (configuration not stated)", "assigned.category": "True"}
{"compound": "CC(C)(C)OC(=O)NCc1cccc(N=C=S)c1", "assigned.category": "True"}
{"compound": "CN1C(=O)C2(SCC(C(=O)NCC(=O)OC(C)(C)C)N2C(=O)C2CCCCC2)c2ccccc21 (configuration not stated)", "assigned.category": "False"}
{"compound": "CCC(CC(C)C)Nc1ccc(NC(CC)CC(C)C)cc1 (configuration not stated)", "assigned.category": "False"}
{"compound": "CCN(CC)CCNC(=O)c1c(C)[nH]c(/C=C2\\C(=O)Nc3cc(NC(=O)NC(=O)c4ccc(OC)cc4F)ccc32)c1C", "assigned.category": "False"}
{"compound": "N#Cc1c2c(c(N)[nH]c1=O)C(=O)NC2(O)c1ccccc1 (configuration not stated)", "assigned.category": "False"}
{"compound": "O=C1COc2ccccc2C(=O)N1CCCCNc1ccccc1", "assigned.category": "False"}
{"compound": "OC[C@@H](O)C(O[C@@H]1O[C@H](CO)[C@H](O)[C@H](O)[C@H]1O)[C@H](O)[C@@H](O)CO (some centres not stated)", "assigned.category": "False"}
{"compound": "Cc1ccc[n+](CC(=O)c2cccc3ccccc23)c1", "assigned.category": "False"}
{"compound": "CCCCCC/C=N/Nc1ccc([N+](=O)[O-])cn1", "assigned.category": "False"}
{"compound": "O=c1cc(Cl)[nH]c(=O)[nH]1", "assigned.category": "False"}
{"compound": "COc1ccc(-c2cc3ccc(N(C)C)cc3nc2N)c(F)c1", "assigned.category": "False"}
{"compound": "CCOC(=O)C1CN(Cc2ccccc2)C(=O)C1=O (configuration not stated)", "assigned.category": "False"}
{"compound": "COc1ccc2c(c1)OC(N)=C(C#N)C2c1ccc(F)cc1 (configuration not stated)", "assigned.category": "True"}
{"compound": "CCCCNc1cc(C(=O)O)cc(S(N)(=O)=O)c1Oc1ccccc1", "assigned.category": "False"}
{"compound": "CSc1ccc(C(=O)C[n+]2cccc(C)c2)cc1", "assigned.category": "False"}
{"compound": "O=C(CSc1nnc(-c2cc3c([nH]c4ccccc43)c(-c3cccc(O)c3)n2)n1-c1ccccc1)c1ccccc1", "assigned.category": "False"}
{"compound": "CCn1c(SC)nnc1-c1cc2c([nH]c3ccccc32)c(-c2cccc(O)c2)n1", "assigned.category": "True"}
{"compound": "O=C1OC(N(Cc2ccc(Cl)cc2)c2ccccc2)c2ccccc21 (configuration not stated)", "assigned.category": "False"}
{"compound": "C=C(C)[C@@H]1C/C=C(\\COC(=O)[C@H](OC(C)=O)C(NC(=O)c2ccccc2)c2ccccc2)CC[C@H]2O[C@]2(C)CC/C=C(\\C)CC1 (some centres not stated)", "assigned.category": "False"}
{"compound": "c1ccc(CNCCN(CCNCc2ccccn2)Cc2ccc3ccccc3c2)nc1", "assigned.category": "True"}
{"compound": "Cc1cn(-c2cc(C(=O)Nc3cccc(-n4ccc5c(NC(=O)c6ccccc6)nccc54)c3)cc(C(F)(F)F)c2)cn1", "assigned.category": "False"}
{"compound": "COc1ccc(/C=N/C2=NNC(C)(c3ccccc3O)N2C(Cc2c[nH]c3ccccc23)C(=O)O)cc1 (configuration not stated)", "assigned.category": "False"}
{"compound": "CCCCC(=O)Nc1nc2ccc(SCCC)cc2s1", "assigned.category": "True"}
{"compound": "Nc1ncnc2c1c(-c1ccc(Oc3ccccc3)cc1)nn2C[C@H]1SSC[C@H]1O", "assigned.category": "False"}
{"compound": "c1coc(CSc2ncnc3nc[nH]c23)c1", "assigned.category": "False"}
{"compound": "COc1ccc(/C(=C/c2cc(OC)c(OC)c(OC)c2)[N+](=O)[O-])cc1", "assigned.category": "False"}
{"compound": "CCCCCn1ncc(-c2c(O)c(O)cc3c(O)c(-c4c(C)cc5c(-c6cnn(CCCCC)n6)c(O)c(O)cc5c4O)c(C)cc23)n1", "assigned.category": "False"}
{"compound": "NS(=O)(=O)c1ccc(Nc2nc(O)c(/C=C3\\C=Nc4ccccc43)s2)cc1", "assigned.category": "False"}
{"compound": "Nc1nc(=S)ss1", "assigned.category": "False"}

----------
# System: MALME-3M melanoma
# method.summary: NCI-60 one-dose screen, 48 h (100 = growth as untreated, 0 = no growth, -100 = all killed)
# condition.context: 10 µM unless noted
This is part of a sample that, as a whole, favours compounds with a hit. Of some 83,000 tested, about 20% had one in any assay.

{"compound": "COc1ccc(-c2c(C#N)cnc(N)c2-c2nc3cc(C)c(C)cc3[nH]2)cc1", "growth [%]": 45.9}
{"compound": "COc1cc(CN(c2ccc(Cl)cc2)C2OC(=O)c3ccccc32)cc(OC)c1OC (stereo not given)", "growth [%]": 64.3}
{"compound": "CC(C)NCC(O)COc1ccc(CC(N)=O)cc1 (stereo not given)", "growth [%]": 98.4}
{"compound": "COc1ccc(/C=C/C(=O)c2ccc(-n3cc(CN4CCN(c5cc6c(cc5F)c(=O)c(C(=O)O)cn6C5CC5)CC4)nn3)cc2)cc1OC", "growth [%]": 57.5}
{"compound": "COc1cc(Nc2ncccc2C(=O)Nc2nc3ccc(F)cc3s2)cc(OC)c1OC", "growth [%]": 78.8}

----------
# Tested on: SK-OV-3 ovarian
# method.summary: NCI-60 one-dose screen, 48 h (100 = growth as untreated, 0 = no growth, -100 = all killed)
# condition.context: 10 µM unless noted
Compounds without any hit were thinned out: in the full panel of roughly 83,000, 20% have a hit. Active and inactive are the calls of the source. The calls were made as follows: active = growth percent below 10; inactive = the rest.

{"compound": "COc1ccc(-c2ccc(NC(=O)Nc3cccc(C(F)(F)F)c3)c(C)n2)cc1", "measurement.target": "SK-OV-3 ovarian", "growth": "82.1% (inactive)"}
{"compound": "CN(C)C(=O)Nc1nc2cc(Cl)c(Cl)cc2[nH]1", "measurement.target": "SK-OV-3 ovarian", "growth": "20.1% (inactive)"}
{"compound": "O=C(O)c1cn(C2CC2)c2cc(N3CCN(C(=O)CSc4nc(NS(=O)(=O)c5ccccc5)cc(=O)[nH]4)CC3)c(F)cc2c1=O", "measurement.target": "SK-OV-3 ovarian", "growth": "117% (inactive)"}
{"compound": "COc1ccc2c(c1)C(=O)/C(=C/c1cccc(OCC(=O)c3ccccc3)c1)O2", "measurement.target": "SK-OV-3 ovarian", "growth": "121% (inactive)"}
{"compound": "Nc1nccc(=S)[nH]1", "measurement.target": "SK-OV-3 ovarian", "growth": "102% (inactive)"}
